Tested system: M. tuberculosis shikimate kinase (MtSK) (Mycobacterium tuberculosis)
Construct: His6 (N); made in house; host or cells: E. coli BL-21 (DE3)
Sequence (P9WPY3 whole entry): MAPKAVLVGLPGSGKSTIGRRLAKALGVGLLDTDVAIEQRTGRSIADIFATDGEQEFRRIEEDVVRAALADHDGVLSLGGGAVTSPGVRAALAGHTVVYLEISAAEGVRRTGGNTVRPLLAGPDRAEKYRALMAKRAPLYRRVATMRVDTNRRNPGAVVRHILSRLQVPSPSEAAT
Assay protocol: Analysis of inhibitor kinetics / inhibitor modality (MtSK)
Type: biochemical
Experimental setup: SK species: Mt; ATP varied, shikimate fixed at 1.6 mM; read-out: αKi, ATP
Experimental readout: Ki (nM)

>  <Cpd smiles>
Nc1ccc2c(O)c(N=Nc3ccc4c(O)cc(S(=O)(=O)O)cc4c3)c(S(=O)(=O)O)cc2c1

>  <Experimental readout>
Ki

>  <Data value>
200

$$$$
>  <Cpd smiles>
Cc1cc(N=Nc2ccc(N=Nc3ccc(N=Nc4ccc(O)c(C(=O)O)c4)cc3)c(S(=O)(=O)O)c2C)c(N)cc1N

>  <Experimental readout>
Ki

>  <Data value>
300

$$$$

----------
Tested system: H. pylori shikimate kinase (HpSK) (Helicobacter pylori, UniProt P56073)
Construct: made in house; host or cells: Escherichia coli (stated for the mutants, which followed the wild-type procedure)
Sequence (P56073 whole entry): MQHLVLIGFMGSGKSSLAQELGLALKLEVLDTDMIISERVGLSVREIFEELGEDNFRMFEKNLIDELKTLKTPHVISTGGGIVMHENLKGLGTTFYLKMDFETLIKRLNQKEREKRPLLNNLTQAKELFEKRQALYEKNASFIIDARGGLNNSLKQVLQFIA
Assay protocol: Analysis of inhibitor kinetics / inhibitor modality (HpSK)
Type: biochemical
Experimental setup: read-out: αKi, ATP; SK species: Hp; ATP varied, shikimate fixed at 1.6 mM
Protocol: Shikimate kinase activity was determined by coupling the release of ADP from the SK-catalyzed reaction to the oxidation of NADH using pyruvate kinase (EC 2.7.1.40) and lactate dehydrogenase (EC 1.1.1.27) as coupling enzymes. Shikimate-dependent oxidation of NADH was measured by monitoring the decrease in A340 (ε = 6,200 M^−1 cm^−1). […] All assays were conducted in a 96-well microplate and analyzed with a spectrophotometer (FLUOstar OPTIMA, BMG LABTECH). […]
Experimental readout: Ki (nM)

>  <Compound>
Nc1ccc2c(O)c(N=Nc3ccc4c(O)cc(S(=O)(=O)O)cc4c3)c(S(=O)(=O)O)cc2c1 [NSC162535]

>  <Experimental readout>
Ki

>  <Unit text>
nM

>  <Data value>
1900

$$$$
